- Tested on: HCT-116 colon
- assay procedure: NCI tumour cell line growth inhibition, 48 h
Assign fulfilled whenever TGI does not fall below 30 µM; assign not fulfilled whenever it does.

[
  {
    "molecule": "S=c1sc2c(Cl)ncnc2n1-c1ccccc1",
    "class": "not fulfilled"
  },
  {
    "molecule": "CN1C(=O)c2c(ccc3c2OCO3)C2C(O)Cc3cc4c(cc3C21)OCO4 (stereo not given)",
    "class": "fulfilled"
  },
  {
    "molecule": "C=CCNC(=S)Nc1sc2c(c1C(=O)OCC)CC(C)CC2 (stereo not given)",
    "class": "fulfilled"
  },
  {
    "molecule": "O=C(Nc1cccc2ccccc12)Oc1ccccc1C1CCCCC1",
    "class": "fulfilled"
  },
  {
    "molecule": "CC[C@@]1(O)C(=O)OCc2c1cc1n(c2=O)Cc2c-1nc1ccccc1c2/C=N\\NC(=O)C(N)CC(C)C (stereo not given in full)",
    "class": "not fulfilled"
  },
  {
    "molecule": "Nc1nc(N)c2ncn(CC3CCC(CO)C3)c2n1 (stereo not given)",
    "class": "fulfilled"
  },
  {
    "molecule": "O=C(Cn1c(=O)oc2ccc(C(=O)c3ccc(F)cc3)cc21)c1ccc([N+](=O)[O-])cc1",
    "class": "fulfilled"
  },
  {
    "molecule": "Nc1nc(Cl)cc(NCC2(O)CC(CO)C2)n1 (stereo not given)",
    "class": "fulfilled"
  },
  {
    "molecule": "O=C(NCCCCCCCCNC(=O)c1cnc2ccccc2n1)c1cnc2ccccc2n1",
    "class": "fulfilled"
  },
  {
    "molecule": "COc1ccc(/C(=N/NC(N)=O)C2(O)C(=O)Nc3ccc([N+](=O)[O-])cc32)cc1 (stereo not given)",
    "class": "fulfilled"
  }
]
